- target system: Grb2 SH2 (UniProt P62993)
- Sequence (P62993 whole entry, looked up, the tested form may be a part): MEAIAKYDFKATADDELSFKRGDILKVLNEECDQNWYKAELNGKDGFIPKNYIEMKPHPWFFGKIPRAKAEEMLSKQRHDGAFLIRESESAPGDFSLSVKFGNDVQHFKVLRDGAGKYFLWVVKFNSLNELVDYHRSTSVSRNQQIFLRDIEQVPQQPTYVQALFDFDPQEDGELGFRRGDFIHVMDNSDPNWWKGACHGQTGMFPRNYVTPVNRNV
- method description: SH2 binding enrichment of the phosphorylated peptide, bacterial display (enrichment ratio); higher = better substrate or ligand; peptides without Tyr show the background;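 further: peptide library displayed on the E. coli surface as eCPX fusions, selected cells deep-sequenced, score is each peptide's frequency after selection divided by its frequency in the input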
Each entry gets 0 if its SH2 binding enrichment stays under 1, and 1 if its SH2 binding enrichment is 1 or above.

- primary sequence: "PQDVTYAQLHS [LILRB4_Y412]"
  target system: "Grb2 SH2 (UniProt P62993)"
  assigned class: 0
- primary sequence: "YIATQYSLCPR [LBR_Y166_R169C]"
  target system: "Grb2 SH2 (UniProt P62993)"
  assigned class: 0
- primary sequence: "TQPSPYAVFLF [RPGRIP1_Y823_R827L_YF]"
  target system: "Grb2 SH2 (UniProt P62993)"
  assigned class: 0
- primary sequence: "CHRQLYHKCTH [F12_Y58_Y53C]"
  target system: "Grb2 SH2 (UniProt P62993)"
  assigned class: 1
- primary sequence: "ERNAHYRTPKI [PTK2B_Y699_R698H]"
  target system: "Grb2 SH2 (UniProt P62993)"
  assigned class: 0
- primary sequence: "TTTQAYRVDER [PRKN_Y391]"
  target system: "Grb2 SH2 (UniProt P62993)"
  assigned class: 0
- primary sequence: "RIVTTYIRERE [DNM2_Y463]"
  target system: "Grb2 SH2 (UniProt P62993)"
  assigned class: 0
- primary sequence: "APGNAYGDAGY [SYP_Y250_D248N]"
  target system: "Grb2 SH2 (UniProt P62993)"
  assigned class: 0
- primary sequence: "ALEKTYNTFRS [B4GALNT2_Y538_YF]"
  target system: "Grb2 SH2 (UniProt P62993)"
  assigned class: 0
- primary sequence: "DIRAQYDELAR [KRT18_Y256]"
  target system: "Grb2 SH2 (UniProt P62993)"
  assigned class: 0
- primary sequence: "RDLRTYIMPAH [PNMT_Y256]"
  target system: "Grb2 SH2 (UniProt P62993)"
  assigned class: 0
- primary sequence: "TVLEHYRRTHC [MYBPC3_Y1119]"
  target system: "Grb2 SH2 (UniProt P62993)"
  assigned class: 1
- primary sequence: "SVVVPSEPPEV [TP53_Y220_Y220S]"
  target system: "Grb2 SH2 (UniProt P62993)"
  assigned class: 1
- primary sequence: "CTTIHYNFMSN [TP53_Y234_C238S_YF]"
  target system: "Grb2 SH2 (UniProt P62993)"
  assigned class: 0
- primary sequence: "SGFESYGSSSF [RPA2_Y9_YF]"
  target system: "Grb2 SH2 (UniProt P62993)"
  assigned class: 0
- primary sequence: "GESLTYVSTTF [C1orf162_Y120_A121V]"
  target system: "Grb2 SH2 (UniProt P62993)"
  assigned class: 0
- primary sequence: "NPEACYQRLKK [TK2_Y190_T188A]"
  target system: "Grb2 SH2 (UniProt P62993)"
  assigned class: 1
- primary sequence: "MPLTEYLKQIK [CNGB3_Y200_R203Q]"
  target system: "Grb2 SH2 (UniProt P62993)"
  assigned class: 0
- primary sequence: "CTLTHYKSAVK [ASNS_Y555_R550C]"
  target system: "Grb2 SH2 (UniProt P62993)"
  assigned class: 0
- primary sequence: "RRNTPYSQTMK [TET2_Y819_S817T]"
  target system: "Grb2 SH2 (UniProt P62993)"
  assigned class: 1
- primary sequence: "LTERDYSFVTT [ACTG2_Y199_G198D]"
  target system: "Grb2 SH2 (UniProt P62993)"
  assigned class: 0
- primary sequence: "RALCHYFKLNI [ETV6_Y401_R399C_YF]"
  target system: "Grb2 SH2 (UniProt P62993)"
  assigned class: 1
- primary sequence: "PQAVRYIYTID [DCX_Y103_G100A]"
  target system: "Grb2 SH2 (UniProt P62993)"
  assigned class: 0
- primary sequence: "EAIMTYVSSFF [ACTN4_Y260_K255E_YF]"
  target system: "Grb2 SH2 (UniProt P62993)"
  assigned class: 0
- primary sequence: "GCVRMYELVHR [GLE1_Y135]"
  target system: "Grb2 SH2 (UniProt P62993)"
  assigned class: 1
- primary sequence: "ERNARYRTPKI [PTK2B_Y699]"
  target system: "Grb2 SH2 (UniProt P62993)"
  assigned class: 0
- primary sequence: "VKMLEYRGKDV [CASP5_Y74_L75R]"
  target system: "Grb2 SH2 (UniProt P62993)"
  assigned class: 0
- primary sequence: "KVALVYGQMNQ [ATP5F1B_Y269_E274Q]"
  target system: "Grb2 SH2 (UniProt P62993)"
  assigned class: 0
